Taken from patent EP0559625B1.

measuredOn: sites associated to calcium channels labeled by ^3H-Diltiazem
experimentalProtocol: Binding to Ca++ channel sites labelled by 3H-Diltiazem in rat brain
conditionParameters: rat brain cortex membranes; ^3H-d-cis Diltiazem 4 nM, 60' at 30°C; read-out: IC50 Uptake sites of Ca^++ channels labelled with ^3H-Diltiazem
Measured IC50, listed per entry.
# number only, unit µM dropped from output

CCCCCCCCCCCOC(=O)C[C@H](C[N+](C)(C)C)OC(=O)C(C)C | 1.2
CC(C)COC(=O)C[C@H](C[N+](C)(C)C)OC(=O)CC(C)C | 7.8

Then there is this compound:
// Input: "CCCCCCCOC(=O)C[C@H](C[N+](C)(C)C)OC(=O)CC(C)C" . Output its IC50 only.
0.5
